The entries below are paired with their reported pEC50.
target: TLX LBD (Homo sapiens (Human), UniProt Q9Y466); experiment: ALPHA screen assay for TLX LBD and coactivator peptide recruitment; details: Table 3
Sequence (Q9Y466 155-383): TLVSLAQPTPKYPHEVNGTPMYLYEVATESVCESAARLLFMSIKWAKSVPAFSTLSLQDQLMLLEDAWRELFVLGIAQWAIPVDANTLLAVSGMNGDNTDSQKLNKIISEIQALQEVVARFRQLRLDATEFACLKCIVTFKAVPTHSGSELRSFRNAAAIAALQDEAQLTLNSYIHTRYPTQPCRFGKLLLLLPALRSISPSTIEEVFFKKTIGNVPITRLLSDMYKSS
Please treat pEC50 as minus the base-10 logarithm of the molar concentration.

                                   compound                         system_under_test  observation_type  number
0  COC(=O)C[C@H]1CN(C(=O)c2cccnc2NCCC(C)C)C[C@@H](C)N1Cc1ccccc1  TLX LBD (Homo sapiens (Human), UniProt Q9Y466)             pEC50   10.91
1  Cc1cccc(CN2CCN(C(=O)c3cccnc3NCCC(C)C)[C@H](C)C2)c1  TLX LBD (Homo sapiens (Human), UniProt Q9Y466)             pEC50   10.91
2  CCCCN1CCN(C(=O)c2cccnc2NCCC(C)C)[C@@H](C)C1  TLX LBD (Homo sapiens (Human), UniProt Q9Y466)             pEC50   10.47

Q. State its pEC50 on TLX LBD (Homo sapiens (Human), UniProt Q9Y466): Cc1ccccc1CN1CCN(C(=O)c2cccnc2NCCC(C)C)[C@@H](C)C1
A. 10.86

Q. State its pEC50 on TLX LBD (Homo sapiens (Human), UniProt Q9Y466): COC(=O)c1ccc(CN2CCN(C(=O)c3cccnc3NCCC(C)C)CC2)cc1
A. 10.13

Ref: patent US20240067625A1
